Assay: Hemolytic activity in rat RBC assessed as hemoglobin release at 16 ug/mL after 1 hr by microplate reader analysis relative to control
Type: ADME, cell-based, Erythrocyte
Details: red blood cells (RBC), read-out: Activity
Recorded metric: hemolysis at 1 h, 16 ug/mL (%)
Numeric answer only, unit % assumed.

Examples with answers:
Smi	Readout units	hemolysis at 1 h, 16 ug/mL
CCCCCCCCSC[C@H]1O[C@H](O[C@H]2[C@H](O[C@@H]3O[C@H](CSCCCCCCCC)[C@@H](O[C@H]4O[C@@H](CN)[C@@H](O)[C@H](O)[C@H]4N)[C@H]3O)[C@@H](O)[C@H](N)C[C@@H]2N)[C@H](N)[C@@H](O)[C@@H]1O	%	0.8
CCCCCCCSC[C@H]1O[C@H](O[C@H]2[C@H](O[C@@H]3O[C@H](CSCCCCCCC)[C@@H](O[C@H]4O[C@@H](CN)[C@@H](O)[C@H](O)[C@H]4N)[C@H]3O)[C@@H](O)[C@H](N)C[C@@H]2N)[C@H](N)[C@@H](O)[C@@H]1O	%	0
CCCCCCCCCCCCCCCCSC[C@H]1O[C@H](O[C@H]2[C@H](O[C@@H]3O[C@H](CO)[C@@H](O[C@H]4O[C@@H](CN)[C@@H](O)[C@H](O)[C@H]4N)[C@H]3O)[C@@H](O)[C@H](N)C[C@@H]2N)[C@H](N)[C@@H](O)[C@@H]1O	%	33.8

Now for the molecule whose hemolysis at 1 h, 16 ug/mL we want.
Determine its reported hemolysis at 1 h, 16 ug/mL: CCCCCCSC[C@H]1O[C@H](O[C@H]2[C@H](O[C@@H]3O[C@H](CSCCCCCC)[C@@H](O[C@H]4O[C@@H](CN)[C@@H](O)[C@H](O)[C@H]4N)[C@H]3O)[C@@H](O)[C@H](N)C[C@@H]2N)[C@H](N)[C@@H](O)[C@@H]1O
0

----------
Test system: Staphylococcus aureus
Assay: Antibacterial activity against Staphylococcus aureus Cowan ATCC 12598 assessed as growth inhibition after 24 hrs by MTT assay
Type: functional
Conditions: Cowan ATCC 12598, 24 h
MIC reference
Numeric answer only, unit µg/mL assumed.

Examples with answers:
Smi	Measurement target	MIC, µg/mL
CCCCCCCCCCCCCCCCSC[C@H]1O[C@H](O[C@H]2[C@H](O[C@@H]3O[C@H](CO)[C@@H](O[C@H]4O[C@@H](CN)[C@@H](O)[C@H](O)[C@H]4N)[C@H]3O)[C@@H](O)[C@H](N)C[C@@H]2N)[C@H](N)[C@@H](O)[C@@H]1O	Staphylococcus aureus	64
NC[C@@H]1O[C@H](O[C@H]2[C@@H](O)[C@H](O[C@@H]3[C@@H](O)[C@H](N)C[C@H](N)[C@H]3O[C@H]3O[C@H](CO)[C@@H](O)[C@H](O)[C@H]3N)O[C@@H]2CO)[C@H](N)[C@@H](O)[C@@H]1O	Staphylococcus aureus	16
CCCCCCCSC[C@H]1O[C@H](O[C@H]2[C@H](O[C@@H]3O[C@H](CSCCCCCCC)[C@@H](O[C@H]4O[C@@H](CN)[C@@H](O)[C@H](O)[C@H]4N)[C@H]3O)[C@@H](O)[C@H](N)C[C@@H]2N)[C@H](N)[C@@H](O)[C@@H]1O	Staphylococcus aureus	16
CCCCCCCCSC[C@H]1O[C@H](O[C@H]2[C@H](O[C@@H]3O[C@H](CSCCCCCCCC)[C@@H](O[C@H]4O[C@@H](CN)[C@@H](O)[C@H](O)[C@H]4N)[C@H]3O)[C@@H](O)[C@H](N)C[C@@H]2N)[C@H](N)[C@@H](O)[C@@H]1O	Staphylococcus aureus	4

Now for the compound whose MIC we want.
Determine its reported MIC: CCCCCCSC[C@H]1O[C@H](O[C@H]2[C@H](O[C@@H]3O[C@H](CSCCCCCC)[C@@H](O[C@H]4O[C@@H](CN)[C@@H](O)[C@H](O)[C@H]4N)[C@H]3O)[C@@H](O)[C@H](N)C[C@@H]2N)[C@H](N)[C@@H](O)[C@@H]1O
64

----------
Tested on: Streptococcus pyogenes
Assay: Antibacterial activity against Streptococcus pyogenes serotype M1T1 assessed as growth inhibition after 24 hrs by MTT assay
Format: functional
Details: serotype M1T1, 24 h
Non-standard residues stand in square brackets, D forms with d. Residues, ends and D or L forms follow the SMILES beside them. *: point of attachment. NHCH2CH2OH = OCCN*; For = O=C*
Recorded metric: MIC

Determine its reported MIC: NC[C@@H]1O[C@H](O[C@H]2[C@@H](O)[C@H](O[C@@H]3[C@@H](O)[C@H](N)C[C@H](N)[C@H]3O[C@H]3O[C@H](CO)[C@@H](O)[C@H](O)[C@H]3N)O[C@@H]2CO)[C@H](N)[C@@H](O)[C@@H]1O
64 µg/mL

Determine its reported MIC: CCCCCCCCCCCCCCCCSC[C@H]1O[C@H](O[C@H]2[C@H](O[C@@H]3O[C@H](CO)[C@@H](O[C@H]4O[C@@H](CN)[C@@H](O)[C@H](O)[C@H]4N)[C@H]3O)[C@@H](O)[C@H](N)C[C@@H]2N)[C@H](N)[C@@H](O)[C@@H]1O
> 64 µg/mL

Determine its reported MIC: CCCCCCCCSC[C@H]1O[C@H](O[C@H]2[C@H](O[C@@H]3O[C@H](CSCCCCCCCC)[C@@H](O[C@H]4O[C@@H](CN)[C@@H](O)[C@H](O)[C@H]4N)[C@H]3O)[C@@H](O)[C@H](N)C[C@@H]2N)[C@H](N)[C@@H](O)[C@@H]1O
2 µg/mL

Determine its reported MIC: CCCCCCCSC[C@H]1O[C@H](O[C@H]2[C@H](O[C@@H]3O[C@H](CSCCCCCCC)[C@@H](O[C@H]4O[C@@H](CN)[C@@H](O)[C@H](O)[C@H]4N)[C@H]3O)[C@@H](O)[C@H](N)C[C@@H]2N)[C@H](N)[C@@H](O)[C@@H]1O
4 µg/mL

Determine its reported MIC: CCCCCCSC[C@H]1O[C@H](O[C@H]2[C@H](O[C@@H]3O[C@H](CSCCCCCC)[C@@H](O[C@H]4O[C@@H](CN)[C@@H](O)[C@H](O)[C@H]4N)[C@H]3O)[C@@H](O)[C@H](N)C[C@@H]2N)[C@H](N)[C@@H](O)[C@@H]1O
16 µg/mL

Determine its reported MIC: CC(C)C[C@@H](NC(=O)[C@H](C)NC(=O)CNC(=O)[C@@H](NC=O)C(C)C)C(=O)N[C@@H](C)C(=O)N[C@@H](C(=O)N[C@H](C(=O)N[C@@H](C(=O)N[C@@H](Cc1c[nH]c2ccccc12)C(=O)N[C@H](CC(C)C)C(=O)N[C@@H](Cc1c[nH]c2ccccc12)C(=O)N[C@H](CC(C)C)C(=O)N[C@@H](Cc1c[nH]c2ccccc12)C(=O)N[C@H](CC(C)C)C(=O)N[C@@H](Cc1c[nH]c2ccccc12)C(=O)NCCO)C(C)C)C(C)C)C(C)C [GRAMICIDIN D] (For-VGA[dL]A[dV]V[dV]W[dL]W[dL]W[dL]W-NHCH2CH2OH)
< 0.5 µg/mL
